The reader will find reported IC50 values listed item by item below.
target: recombinant human CK2 (Homo sapiens, UniProt P68400); test: cell-free CK2 assay
Sequence (P68400 whole entry): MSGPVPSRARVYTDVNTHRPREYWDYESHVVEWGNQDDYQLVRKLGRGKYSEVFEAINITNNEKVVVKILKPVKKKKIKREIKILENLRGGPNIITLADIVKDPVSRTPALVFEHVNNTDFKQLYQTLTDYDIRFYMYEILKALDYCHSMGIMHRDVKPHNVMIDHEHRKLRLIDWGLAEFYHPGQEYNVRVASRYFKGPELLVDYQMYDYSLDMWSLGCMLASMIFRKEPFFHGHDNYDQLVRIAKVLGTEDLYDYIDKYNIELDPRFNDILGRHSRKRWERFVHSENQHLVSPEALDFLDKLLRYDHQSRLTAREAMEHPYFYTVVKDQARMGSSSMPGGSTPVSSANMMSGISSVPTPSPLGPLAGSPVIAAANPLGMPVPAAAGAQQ
Sequence (P67870 whole entry partner): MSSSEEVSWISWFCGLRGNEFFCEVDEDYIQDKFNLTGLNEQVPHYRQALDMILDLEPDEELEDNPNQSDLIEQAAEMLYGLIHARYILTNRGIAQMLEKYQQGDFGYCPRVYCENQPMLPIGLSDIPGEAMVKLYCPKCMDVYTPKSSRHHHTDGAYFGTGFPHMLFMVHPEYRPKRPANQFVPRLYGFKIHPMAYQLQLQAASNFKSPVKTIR
measurement.label: IC50

sample_smiles=Clc1cccc(Nc2nc3c(-c4nnc[nH]4)cccc3n3cccc23)c1 system="recombinant human CK2 (Homo sapiens, UniProt P68400)" result="< 100 nM"
sample_smiles=CCOC(=O)c1cccc2c1nc(Nc1ccccc1F)c1cccn12 system="recombinant human CK2 (Homo sapiens, UniProt P68400)" result="> 5000 nM"
sample_smiles=Fc1ccc(Nc2nc3c(-c4nnc[nH]4)cccc3n3cccc23)c(Cl)c1 system="recombinant human CK2 (Homo sapiens, UniProt P68400)" result="< 1000 nM"
sample_smiles=CCOC(=O)c1cccc2c1[nH]c(=O)c1cncn12 system="recombinant human CK2 (Homo sapiens, UniProt P68400)" result="< 5000 nM"
sample_smiles=NC(=O)c1cccc2c1nc(Nc1ccccc1Cl)c1cccn12 system="recombinant human CK2 (Homo sapiens, UniProt P68400)" result="< 1000 nM"
sample_smiles=CC(C)(C)OC(=O)OCc1cccc2c1nc(N(C(=O)OC(C)(C)C)c1ccccc1F)c1cccn12 system="recombinant human CK2 (Homo sapiens, UniProt P68400)" result="> 5000 nM"
sample_smiles=COc1ccc(Sc2nc3c(-c4nnc[nH]4)cccc3n3cccc23)cc1 system="recombinant human CK2 (Homo sapiens, UniProt P68400)" result="< 100 nM"
sample_smiles=CCOC(=O)c1cccc2c1nc(N(C(=O)OC(C)(C)C)c1ccccc1F)c1cccn12 system="recombinant human CK2 (Homo sapiens, UniProt P68400)" result="> 5000 nM"
sample_smiles=CCOC(=O)c1cccc2c1[nH]c(=O)c1nccn12 system="recombinant human CK2 (Homo sapiens, UniProt P68400)" result="> 5000 nM"
sample_smiles=NC(=O)c1cccc2c1[nH]c(=O)c1cccn12 system="recombinant human CK2 (Homo sapiens, UniProt P68400)" result="> 5000 nM"
sample_smiles=c1cc(-c2nnc[nH]2)c2nc(NCC3CC3)c3cccn3c2c1 system="recombinant human CK2 (Homo sapiens, UniProt P68400)" result="< 5000 nM"
sample_smiles=Fc1ccccc1Nc1nc2c(-c3nnc[nH]3)cccc2n2cccc12 system="recombinant human CK2 (Homo sapiens, UniProt P68400)" result="< 100 nM"
sample_smiles=c1cc(-c2nnc[nH]2)c2nc(NC3CC3)c3cccn3c2c1 system="recombinant human CK2 (Homo sapiens, UniProt P68400)" result="< 1000 nM"
sample_smiles=O=c1[nH]c2c(-c3nnc[nH]3)cccc2n2cccc12 system="recombinant human CK2 (Homo sapiens, UniProt P68400)" result="< 5000 nM"
sample_smiles=O=C(NC1CC1)c1cccc2c1nc(Nc1ccccc1F)c1cccn12 system="recombinant human CK2 (Homo sapiens, UniProt P68400)" result="< 1000 nM"
sample_smiles=Fc1ccc(Nc2nc3c(-c4nnc[nH]4)cccc3n3cccc23)c(F)c1 system="recombinant human CK2 (Homo sapiens, UniProt P68400)" result="< 100 nM"
sample_smiles=CCOC(=O)c1cccc2c1nc(Nc1ccccc1F)c1cncn12 system="recombinant human CK2 (Homo sapiens, UniProt P68400)" result="< 5000 nM"
sample_smiles=O=C(O)c1cccc2c1nc(Nc1ccccc1F)c1cccn12 system="recombinant human CK2 (Homo sapiens, UniProt P68400)" result="< 1000 nM"
sample_smiles=Fc1ccccc1Nc1nc2c(-c3nnc[nH]3)cccc2n2cncc12 system="recombinant human CK2 (Homo sapiens, UniProt P68400)" result="< 100 nM"
sample_smiles=NC(=O)c1cccc2c1nc(Nc1ccccc1F)c1cncn12 system="recombinant human CK2 (Homo sapiens, UniProt P68400)" result="< 100 nM"
sample_smiles=OCc1cccc2c1nc(Nc1ccccc1F)c1cccn12 system="recombinant human CK2 (Homo sapiens, UniProt P68400)" result="> 5000 nM"
sample_smiles=c1ccc(Nc2nc3c(-c4nnc[nH]4)cccc3n3cccc23)cc1 system="recombinant human CK2 (Homo sapiens, UniProt P68400)" result="< 100 nM"
sample_smiles=O=C(O)c1cccc2c1[nH]c(=O)c1cccn12 system="recombinant human CK2 (Homo sapiens, UniProt P68400)" result="< 5000 nM"

====

target: recombinant human PIM2 (Homo sapiens); test: PIM-2 kinase assay
Sequence (Q9P1W9 whole entry): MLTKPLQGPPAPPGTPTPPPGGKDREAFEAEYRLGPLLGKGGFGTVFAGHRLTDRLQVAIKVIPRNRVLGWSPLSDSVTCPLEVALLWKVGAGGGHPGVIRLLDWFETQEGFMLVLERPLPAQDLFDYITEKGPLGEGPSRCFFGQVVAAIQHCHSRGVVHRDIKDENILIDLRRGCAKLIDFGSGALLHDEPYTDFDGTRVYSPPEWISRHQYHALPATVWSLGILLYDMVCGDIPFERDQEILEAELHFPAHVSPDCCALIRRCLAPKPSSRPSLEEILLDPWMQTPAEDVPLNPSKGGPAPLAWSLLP
pIC50: −log10 of the molar value.
measurement.label: pIC50

sample_smiles=Fc1ccc(Nc2nc3c(-c4nnc[nH]4)cccc3n3cccc23)c(F)c1 system="recombinant human PIM2 (Homo sapiens)" measurement_label=pIC50 result="> 7.00"
sample_smiles=CC(C)(C)OC(=O)OCc1cccc2c1nc(N(C(=O)OC(C)(C)C)c1ccccc1F)c1cccn12 system="recombinant human PIM2 (Homo sapiens)" measurement_label=pIC50 result="< 5.60"
sample_smiles=CCOC(=O)c1cccc2c1[nH]c(=O)c1cncn12 system="recombinant human PIM2 (Homo sapiens)" measurement_label=pIC50 result="< 5.60"
sample_smiles=OCc1cccc2c1nc(Nc1ccccc1F)c1cccn12 system="recombinant human PIM2 (Homo sapiens)" measurement_label=pIC50 result="> 5.30"
sample_smiles=Oc1cccc(Nc2nc3c(-c4nnc[nH]4)cccc3n3cccc23)c1 system="recombinant human PIM2 (Homo sapiens)" measurement_label=pIC50 result="> 7.00"
sample_smiles=FC(F)(F)CCNc1nc2c(-c3nnc[nH]3)cccc2n2cccc12 system="recombinant human PIM2 (Homo sapiens)" measurement_label=pIC50 result="> 6.00"
sample_smiles=Fc1ccccc1Nc1nc2c(-c3nnc[nH]3)cccc2n2cncc12 system="recombinant human PIM2 (Homo sapiens)" measurement_label=pIC50 result="> 7.00"
sample_smiles=Brc1cccc(Nc2nc3c(-c4nnc[nH]4)cccc3n3cccc23)c1 system="recombinant human PIM2 (Homo sapiens)" measurement_label=pIC50 result="> 7.00"
sample_smiles=O=C(O)c1cccc2c1nc(Nc1ccccc1F)c1cccn12 system="recombinant human PIM2 (Homo sapiens)" measurement_label=pIC50 result="> 6.00"
sample_smiles=NC(=O)c1cccc2c1nc(Nc1ccccc1F)c1cncn12 system="recombinant human PIM2 (Homo sapiens)" measurement_label=pIC50 result="> 7.00"
sample_smiles=c1cc(-c2nnc[nH]2)c2nc(NCC3CC3)c3cccn3c2c1 system="recombinant human PIM2 (Homo sapiens)" measurement_label=pIC50 result="> 6.00"
sample_smiles=Fc1ccccc1Nc1nc2c(-c3nnc[nH]3)cccc2n2cccc12 system="recombinant human PIM2 (Homo sapiens)" measurement_label=pIC50 result="> 7.00"
sample_smiles=Clc1cccc(Nc2nc3c(-c4nnc[nH]4)cccc3n3cccc23)c1 system="recombinant human PIM2 (Homo sapiens)" measurement_label=pIC50 result="> 7.00"
sample_smiles=COc1ccc(Sc2nc3c(-c4nnc[nH]4)cccc3n3cccc23)cc1 system="recombinant human PIM2 (Homo sapiens)" measurement_label=pIC50 result="> 5.30"
sample_smiles=CCOC(=O)c1cccc2c1nc(Nc1ccccc1F)c1cncn12 system="recombinant human PIM2 (Homo sapiens)" measurement_label=pIC50 result="< 5.60"
sample_smiles=O=C(O)c1cccc2c1[nH]c(=O)c1cccn12 system="recombinant human PIM2 (Homo sapiens)" measurement_label=pIC50 result="< 5.60"
sample_smiles=CCOC(=O)c1cccc2c1nc(N(C(=O)OC(C)(C)C)c1ccccc1F)c1cccn12 system="recombinant human PIM2 (Homo sapiens)" measurement_label=pIC50 result="< 5.60"
sample_smiles=c1ccc(Nc2nc3c(-c4nnc[nH]4)cccc3n3cccc23)cc1 system="recombinant human PIM2 (Homo sapiens)" measurement_label=pIC50 result="> 7.00"
sample_smiles=CN(C)CCNc1nc2c(-c3nnc[nH]3)cccc2n2cccc12 system="recombinant human PIM2 (Homo sapiens)" measurement_label=pIC50 result="< 5.60"
sample_smiles=O=C(O)c1cccc2c1nc(Nc1ccccc1F)c1cncn12 system="recombinant human PIM2 (Homo sapiens)" measurement_label=pIC50 result="< 5.60"
sample_smiles=c1cc(-c2nnc[nH]2)c2nc(Nc3nccs3)c3cccn3c2c1 system="recombinant human PIM2 (Homo sapiens)" measurement_label=pIC50 result="> 5.30"
sample_smiles=Clc1ccccc1Nc1nc2c(-c3nnc[nH]3)cccc2n2cccc12 system="recombinant human PIM2 (Homo sapiens)" measurement_label=pIC50 result="> 7.00"
sample_smiles=CCOC(=O)c1cccc2c1[nH]c(=O)c1nccn12 system="recombinant human PIM2 (Homo sapiens)" measurement_label=pIC50 result="< 5.60"

====

Target: FLT3 (Homo sapiens, UniProt P36888)
Sequence (P36888 27-993): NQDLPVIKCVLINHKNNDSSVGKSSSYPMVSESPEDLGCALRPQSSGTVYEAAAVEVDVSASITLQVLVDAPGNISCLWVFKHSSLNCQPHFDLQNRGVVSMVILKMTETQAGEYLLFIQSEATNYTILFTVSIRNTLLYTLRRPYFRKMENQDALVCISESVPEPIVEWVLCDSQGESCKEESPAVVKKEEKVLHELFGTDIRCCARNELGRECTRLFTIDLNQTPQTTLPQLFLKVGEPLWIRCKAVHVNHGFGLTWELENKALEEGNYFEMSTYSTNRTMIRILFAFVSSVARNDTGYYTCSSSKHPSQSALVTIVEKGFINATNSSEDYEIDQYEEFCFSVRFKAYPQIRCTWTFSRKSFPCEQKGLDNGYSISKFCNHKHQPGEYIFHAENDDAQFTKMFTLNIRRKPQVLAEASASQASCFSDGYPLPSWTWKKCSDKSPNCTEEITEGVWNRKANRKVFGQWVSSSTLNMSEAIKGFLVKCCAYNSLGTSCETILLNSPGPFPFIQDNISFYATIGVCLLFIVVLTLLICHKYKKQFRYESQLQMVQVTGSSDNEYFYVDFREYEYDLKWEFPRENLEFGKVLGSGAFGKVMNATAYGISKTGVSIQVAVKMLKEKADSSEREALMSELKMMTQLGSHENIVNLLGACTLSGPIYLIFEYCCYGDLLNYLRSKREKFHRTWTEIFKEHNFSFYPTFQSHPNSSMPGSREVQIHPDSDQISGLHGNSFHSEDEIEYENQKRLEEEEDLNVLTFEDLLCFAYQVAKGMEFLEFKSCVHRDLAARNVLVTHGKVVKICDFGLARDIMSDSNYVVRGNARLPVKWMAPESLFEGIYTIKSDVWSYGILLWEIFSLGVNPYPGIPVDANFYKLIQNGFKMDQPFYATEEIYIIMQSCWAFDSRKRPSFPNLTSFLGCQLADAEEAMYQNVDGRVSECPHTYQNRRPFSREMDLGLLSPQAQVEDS
pIC50: −log10 of the molar value.
measurement.label: pIC50

sample_smiles=Clc1ccccc1Nc1nc2c(-c3nnc[nH]3)cccc2n2cccc12 system="FLT3 (Homo sapiens, UniProt P36888)" measurement_label=pIC50 result="< 5.00"
